Molecular target: TLK1 (Homo sapiens, UniProt Q9UKI8)
Sequence (Q9UKI8 whole entry, species assumed): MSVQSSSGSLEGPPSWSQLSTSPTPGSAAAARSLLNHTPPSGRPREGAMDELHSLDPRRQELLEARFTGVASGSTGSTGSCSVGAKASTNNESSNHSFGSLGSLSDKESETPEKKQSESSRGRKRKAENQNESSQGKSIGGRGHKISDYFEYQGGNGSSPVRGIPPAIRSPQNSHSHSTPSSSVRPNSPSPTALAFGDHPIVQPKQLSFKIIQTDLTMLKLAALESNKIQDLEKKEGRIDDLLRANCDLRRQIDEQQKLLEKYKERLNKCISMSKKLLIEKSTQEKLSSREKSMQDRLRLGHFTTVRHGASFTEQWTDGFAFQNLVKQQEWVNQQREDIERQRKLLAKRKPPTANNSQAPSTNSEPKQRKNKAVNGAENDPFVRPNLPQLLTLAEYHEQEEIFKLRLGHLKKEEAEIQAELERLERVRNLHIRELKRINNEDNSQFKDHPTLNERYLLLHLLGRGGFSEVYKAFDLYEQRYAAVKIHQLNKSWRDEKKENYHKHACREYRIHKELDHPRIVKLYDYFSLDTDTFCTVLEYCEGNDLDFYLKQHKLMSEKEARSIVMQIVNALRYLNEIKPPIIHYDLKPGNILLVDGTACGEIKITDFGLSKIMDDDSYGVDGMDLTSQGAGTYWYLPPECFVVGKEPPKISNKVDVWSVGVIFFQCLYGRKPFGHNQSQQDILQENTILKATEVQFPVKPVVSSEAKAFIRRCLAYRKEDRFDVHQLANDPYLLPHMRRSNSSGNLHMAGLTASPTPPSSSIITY
Assay: Kinase profiling TLK1
Type: biochemical
Details: 100 micromolar inhibitor concentration; 100 is no change; read-out: residual kinase activity, TLK1
Friendly reminder: remaining activity at 100 µM below 90% is MET, at or above is NOT MET.

Before answering, review these 4 worked examples.
>>> df
          structure_smiles_string                                  tgt    label
0  CC(=O)Nc1nc2cc(C(F)(F)F)ccc2s1  TLK1 (Homo sapiens, UniProt Q9UKI8)  NOT MET
1         CC(=O)Nc1nc2ccc(O)cc2s1  TLK1 (Homo sapiens, UniProt Q9UKI8)      MET
2       CC(=O)Nc1nc2ccc(C#N)cc2s1  TLK1 (Homo sapiens, UniProt Q9UKI8)      MET
3        COc1ccc2sc(NC(C)=O)nc2c1  TLK1 (Homo sapiens, UniProt Q9UKI8)  NOT MET

Determine if CC(=O)Nc1nc2ccc(C(F)(F)F)cc2s1 shows remaining activity at 100 µM strictly lower than 90%.
MET

###

Target: MKK1 (Homo sapiens)
Sequence (Q02750 whole entry, species assumed): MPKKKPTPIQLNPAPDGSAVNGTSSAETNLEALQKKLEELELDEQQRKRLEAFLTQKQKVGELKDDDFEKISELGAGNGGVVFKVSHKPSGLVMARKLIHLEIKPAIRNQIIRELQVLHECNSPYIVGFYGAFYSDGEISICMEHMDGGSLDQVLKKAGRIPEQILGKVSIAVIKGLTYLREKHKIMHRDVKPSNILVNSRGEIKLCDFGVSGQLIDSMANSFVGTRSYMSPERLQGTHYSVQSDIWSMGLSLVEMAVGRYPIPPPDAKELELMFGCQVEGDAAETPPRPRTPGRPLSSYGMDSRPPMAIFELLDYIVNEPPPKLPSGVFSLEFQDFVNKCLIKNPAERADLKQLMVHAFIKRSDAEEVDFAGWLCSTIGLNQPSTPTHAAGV
Assay: Kinase profiling MKK1
Assay type: biochemical
Conditions: 100 micromolar inhibitor concentration; 100 is no change
residual kinase activity, MKK1 vs 80: at or above is 1, below is 0.

Example cases with answers are listed next.
>>> print(df.to_string())
                                   compound  label
0  CC(=O)Nc1ccc(C(=O)Nc2nc3ccc(O)cc3s2)cc1 [Compound 03-74]      0
1  CC(=O)Nc1cccc(C(=O)Nc2nc3cc(O)ccc3s2)c1 [MS:LY-2-89]      0
2  COc1ccc2sc(NC(=O)c3ccc(NC(C)=O)cc3)nc2c1 [MS:LY-2-77]      1

Entry COc1ccc2sc(NC(=O)c3cccc(NC(C)=O)c3)nc2c1 [MS:LY-2-85] : is its residual kinase activity, MKK1 no less than 80?
1

I'd appreciate it if you could say whether O=C(Nc1nc2ccc(C(F)(F)F)cc2s1)c1ccccc1 [Compound 03-99] has residual kinase activity, MKK1 at least equal to 80.
1

###

Target: JNK3 (Homo sapiens, UniProt P53779)
Sequence (P53779 whole entry, species assumed): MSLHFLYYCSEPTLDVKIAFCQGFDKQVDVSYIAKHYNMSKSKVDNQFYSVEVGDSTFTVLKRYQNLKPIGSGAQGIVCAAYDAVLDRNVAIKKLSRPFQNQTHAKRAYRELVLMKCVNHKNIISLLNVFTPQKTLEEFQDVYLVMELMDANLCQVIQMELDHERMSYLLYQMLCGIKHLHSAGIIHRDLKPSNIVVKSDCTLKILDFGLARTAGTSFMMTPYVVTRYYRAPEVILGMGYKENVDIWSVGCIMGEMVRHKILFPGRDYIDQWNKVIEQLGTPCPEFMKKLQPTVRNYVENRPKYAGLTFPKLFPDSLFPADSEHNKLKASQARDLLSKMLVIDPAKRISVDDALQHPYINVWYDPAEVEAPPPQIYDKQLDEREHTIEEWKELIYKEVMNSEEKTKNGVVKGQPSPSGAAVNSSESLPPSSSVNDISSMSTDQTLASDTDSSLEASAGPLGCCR
Assay: Kinase profiling JNK3
Format: biochemical
Conditions: 100 micromolar inhibitor concentration; 100 is no change; read-out: residual kinase activity, JNK3
Criterion: remaining activity at 100 µM strictly under 80%. Met: T. Not met: F.

>>> print(df.to_string())
   structure_smiles_string  label
0  CC(=O)Nc1nc2ccc(O)cc2s1      T
1  CC(=O)Nc1nc2cc(F)ccc2s1      T

Does the reported remaining activity at 100 µM of the following compound sit strictly below 80%? CC(=O)Nc1nc2ccc(C(F)(F)F)cc2s1
T

Report whether reported remaining activity at 100 µM is lower than 80% (strictly) for CC(=O)Nc1nc2ccc(C#N)cc2s1
T

Confirm or reject: remaining activity at 100 µM of CC(=O)Nc1nc2cc(C(F)(F)F)ccc2s1 lies strictly below 80%
F

###

Molecular target: JNK2 (Homo sapiens)
Sequence (P45984 whole entry, species assumed): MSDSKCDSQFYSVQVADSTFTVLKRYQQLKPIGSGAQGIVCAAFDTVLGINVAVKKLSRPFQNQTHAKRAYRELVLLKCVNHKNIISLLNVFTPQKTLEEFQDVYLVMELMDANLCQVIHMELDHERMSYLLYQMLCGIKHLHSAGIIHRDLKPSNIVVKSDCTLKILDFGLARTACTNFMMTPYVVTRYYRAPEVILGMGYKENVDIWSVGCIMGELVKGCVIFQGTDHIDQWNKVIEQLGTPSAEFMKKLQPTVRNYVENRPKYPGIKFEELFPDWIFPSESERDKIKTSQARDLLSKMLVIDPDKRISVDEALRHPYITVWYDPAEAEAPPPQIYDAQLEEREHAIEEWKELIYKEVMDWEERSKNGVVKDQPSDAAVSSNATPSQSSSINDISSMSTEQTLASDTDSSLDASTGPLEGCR
Test: Kinase profiling JNK2
Type: biochemical
Settings: 100 micromolar inhibitor concentration; 100 is no change
Below, each entry is listed with its recorded residual kinase activity, JNK2.
Would you mind answering with just the numeric figure?

                                   compound  measured_value
0            O=C(Nc1nc2ccc(O)cc2s1)c1ccccc1             107
1            O=C(Nc1nc2ccc(O)cc2s1)c1cccnc1              90
2   CC(=O)Nc1ccc(C(=O)Nc2nc3cc(O)ccc3s2)cc1             105
3  CC(=O)NC(C)C(=O)Nc1nc2ccc(C(F)(F)F)cc2s1 (stereo not shown)              87
4            O=C(Nc1nc2ccc(O)cc2s1)c1ccncc1              90
5            O=C(Nc1nc2cc(O)ccc2s1)c1cccnc1              92

Could you share which residual kinase activity, JNK2 value was measured for COc1ccc2sc(NC(=O)c3cccc(NC(C)=O)c3)nc2c1 ?
100

Please give the measured residual kinase activity, JNK2 for this compound: CC(=O)Nc1nc2ccccc2s1
105

Any idea what residual kinase activity, JNK2 was measured for O=C(Nc1nc2ccc(O)cc2s1)c1ccccn1 ?
101

Query (compound): O=C(Nc1nc2cc(O)ccc2s1)c1ccncc1 ; field requested: residual kinase activity, JNK2
93
